B1: INTS3 (parent)
chain: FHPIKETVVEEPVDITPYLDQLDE

- Variants of: B1
- test protocol: protein stability index of a GFP-peptide fusion (GPS, HEK-293T) (PSI 1-6); higher = more stable;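 also: lentivirally expressed fusions sorted by FACS into six bins by GFP to DsRed ratio, PSI derived from sequencing read proportions per bin multiplied by bin number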
- assay conditions: c terminus: a fixed tail appended
value kind: protein stability index
The answer should be written as a number, with no unit following it.

| mutation string | result number |
| --- | --- |
| V8R | 3.03 |

Need protein stability index of V13F , thanks. 3.05

Try T16L next. 3.05

Try P12K next. 3.04

Try P12A next. 2.99

Try T7I next. 3.06

Try V8M next. 2.95

Try E6G next. 3.04

Try I4K next. 3.08

Try P12R next. 3.01

Try L22F next. 3.03

Try Q21N next. 3.06

The values you see were collected from the supplement of paper PMC10567573.
